Origin of values: PubChem BioAssay AID1918952

system: LG0703-F948-PDC complex spheroid viability; test: Anticancer human tumor LG0703-F948-PDC patient-derived lung adenocarcinoma cell line growth inhibition; conditions: second compound 3.16 µM; first compound 0.000316 µM; active compounds read low;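 note: spheroids exposed to agents for seven days before readout; 100% = DMSO vehicle control wells as normalization base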
attribute.measured: viability, T/C (%)
Give bare numbers, in %.

Here are 6 compounds together with their reported answers.
CC(C)CC(NC(=O)C(Cc1ccccc1)NC(=O)c1cnccn1)B(O)O (stereo not drawn) + NC1CCC(NC2CC2c2ccccc2)CC1	5.46
CC[C@@]1(O)C(=O)OCc2c1cc1n(c2=O)Cc2cc3c(CN(C)C)c(O)ccc3nc2-1 + NC1CCC(NC2CC2c2ccccc2)CC1	110
CC(C)CC(NC(=O)CNC(=O)c1cc(Cl)ccc1Cl)B1OC(=O)CC(CC(=O)O)(C(=O)O)O1 (stereo not drawn) + NC1CCC(NC2CC2c2ccccc2)CC1	112
CC[C@@]1(O)C(=O)OCc2c1cc1n(c2=O)Cc2cc3c(CN(C)C)c(O)ccc3nc2-1 + NC1CC1c1ccc(-c2cccc(O)c2)cc1	108
CC(C)CC(NC(=O)C(Cc1ccccc1)NC(=O)c1cnccn1)B(O)O (stereo not drawn) + NC1CC1c1ccc(-c2cccc(O)c2)cc1	4.22
Cn1ncnc1C1c2n[nH]c(=O)c3cc(F)cc(c23)NC1c1ccc(F)cc1 (stereo not drawn) + NC1CCC(NC2CC2c2ccccc2)CC1	122

Can you give me viability, T/C for all of these, one by one?
1. Cn1ncnc1C1c2n[nH]c(=O)c3cc(F)cc(c23)NC1c1ccc(F)cc1 (stereo not drawn) + NC1CC1c1ccc(-c2cccc(O)c2)cc1
2. CC(C)CC(NC(=O)CNC(=O)c1cc(Cl)ccc1Cl)B1OC(=O)CC(CC(=O)O)(C(=O)O)O1 (stereo not drawn) + NC1CC1c1ccc(-c2cccc(O)c2)cc1

OUT:
1. 119
2. 93.9
